Data origin, for the record: PubChem BioAssay (NCI)

test system: SNB-75 CNS; test: NCI tumour cell line growth inhibition, 48 h
Recorded TGI for the following molecules

Observe how each entry below is paired with its result.
CCOC(=O)/C(=C/c1ccc(OC)c(OC)c1)C(=O)c1ccccc1	28.5 µM
Cc1nnc(Nc2ccc(Cl)cc2)o1	> 10 µM
COc1ccc(C2Oc3c(cccc3OC)C=C2[N+](=O)[O-])cc1OC (stereo unspecified)	> 100 µM
CCOC(=O)Cn1c(=O)c2nc(SC)sc2n(-c2ccc(C)cc2)c1=S	44.2 µM
CCc1cc(-c2nsc(=O)o2)c(S(=O)(=O)CC)s1	> 100 µM

**Q:** What measured TGI is associated with CCOC(=O)C1Cc2c(ccc(OC)c2OC)C(=O)C1N (stereo unspecified) on SNB-75 CNS?
**A:** > 100 µM

**Q:** Ok, now CCC1CCc2nc3sc(C(=O)Nc4ccccc4F)c(N)c3cc2C1 (stereo unspecified)
**A:** > 100 µM

**Q:** Ok, now "COc1ccc(OC)c(/C=C/c2nnc(Nc3ccc(Cl)cc3)o2)c1"
**A:** 7.94 µM

**Q:** Ok, now COC1Cc2c(C)c(OC(C)=O)c3cccnc3c2O1 (stereo unspecified)
**A:** 31.7 µM

**Q:** Ok, now CN1C(=O)n2c(nc3ccccc32)C(N=[N+]=[N-])(N=[N+]=[N-])C1=O (stereo unspecified)
**A:** > 100 µM

**Q:** Ok, now "CC1(C)S[C@@H]2[C@H](NC(=O)CCC[C@@H](N)C(=O)O)C(=O)N2[C@H]1C(=O)O"
**A:** > 50 µM
